Test system: MCF7
ASSAY INFO: Cytotoxicity against human MCF7 cells after 72 hrs by Alamar blue assay
Type: functional, cell-based
CONDITIONS: MCF7, 72 h
PARAMETER: IC50 (nM)
Numbers only, in nM.

Illustrative cases are given below, each with its answer.
INSERT INTO results (chemical_string, measurement) VALUES
  ('C=C1C(=O)[C@]23C[C@H]1CC[C@H]2[C@]1(C)[C@@H](O)CC[C@@](C)(C(=O)OC)[C@H]1C[C@@H]3O', 790),
  ('C=C1C(=O)[C@]23C[C@H]1CC[C@H]2[C@]1(C)CCC[C@@](C)(C(=O)OC)[C@H]1C[C@@H]3O', 630);

Let us examine a further case.
Enquiry: Give measured IC50 for `C=C1C(=O)[C@]23C[C@H]1CC[C@H]2[C@]1(C)[C@@H](OC(C)=O)CC[C@@](C)(C(=O)O)[C@H]1C[C@@H]3O` (MCF7).
Return: 3480
